- assayed.target: Alpha-1B adrenergic receptor (Homo sapiens)
- protocol.notes: Efficacy against alpha 1B-adrenoceptor in human expressed as phenylephrine response at the dose of 40 uM.
- Format: functional
recorded.metric: Max (%)
Numeric answer only, unit % assumed.

# Max lookup, item CC(C)CNC(=O)c1ccccc1NCC1=NCCN1
90

# Max lookup, item CCN(CC)C(=O)c1ccccc1NCC1=NCCN1
32

# Max lookup, item O=C(c1ccccc1NCC1=NCCN1)N1CCCCC1
106

# Max lookup, item O=C(NC1CC1)c1ccccc1NCC1=NCCN1
50

====

For each of the compounds below, state its Max.
- assayed.target: Alpha-1B adrenergic receptor (Homo sapiens) (UniProt P35368)
- Sequence (P35368 whole entry): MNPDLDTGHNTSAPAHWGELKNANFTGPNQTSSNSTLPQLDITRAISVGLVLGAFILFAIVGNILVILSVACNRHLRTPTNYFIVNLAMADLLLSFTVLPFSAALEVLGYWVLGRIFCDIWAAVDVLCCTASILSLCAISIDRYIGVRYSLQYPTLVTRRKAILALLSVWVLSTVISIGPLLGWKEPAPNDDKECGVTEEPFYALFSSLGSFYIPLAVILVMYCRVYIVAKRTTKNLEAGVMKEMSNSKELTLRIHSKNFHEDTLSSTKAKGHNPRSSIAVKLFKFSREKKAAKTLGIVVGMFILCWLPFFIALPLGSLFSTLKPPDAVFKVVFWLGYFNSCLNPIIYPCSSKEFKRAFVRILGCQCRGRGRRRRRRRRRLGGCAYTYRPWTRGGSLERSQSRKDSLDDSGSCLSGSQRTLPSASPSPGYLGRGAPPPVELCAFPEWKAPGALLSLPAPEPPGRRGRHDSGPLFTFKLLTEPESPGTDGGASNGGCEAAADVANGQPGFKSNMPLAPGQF
- protocol.notes: Efficacy against alpha 1B-adrenoceptor in human expressed as phenylephrine response at the dose of 40 uM.
- Type: functional
Number first, unit second.

# Max lookup, item COC(=O)c1ccccc1NCC1=NCCN1
107%

# Max lookup, item CCCCOC(=O)c1ccccc1NCC1=NCCN1
63%

# Max lookup, item c1ccc(C2CC2)c(OCC2=NCCN2)c1
72%

# Max lookup, item CC(C)COC(=O)c1ccccc1NCC1=NCCN1
90%

# Max lookup, item CC(C)(C)OC(=O)c1ccccc1NCC1=NCCN1
81%

# Max lookup, item CCNC(=O)c1ccccc1NCC1=NCCN1
64%

# Max lookup, item CCN(C)C(=O)c1ccccc1NCC1=NCCN1
98%

# Max lookup, item CN(C)C(=O)c1ccccc1NCC1=NCCN1
93%

# Max lookup, item CCCNC(=O)c1ccccc1NCC1=NCCN1
77%

# Max lookup, item CCOC(=O)c1ccccc1NCC1=NCCN1
105%

# Max lookup, item CC(C)NC(=O)c1ccccc1NCC1=NCCN1
95%

# Max lookup, item CNC(=O)c1ccccc1NCC1=NCCN1
99%

# Max lookup, item O=C(c1ccccc1NCC1=NCCN1)N1CCCC1
79%

====

- assayed.target: Alpha-1A adrenergic receptor (Homo sapiens) (UniProt P35348)
- protocol.notes: Efficacy against alpha 1A adrenoceptor in human expressed as phenylephrine response at the dose of 40 uM
- Assay type: functional
For each of the molecules below, state its Max.
Numeric answer only, unit % assumed.

# Max lookup, item COC(=O)c1ccccc1NCC1=NCCN1
110

# Max lookup, item O=C(c1ccccc1NCC1=NCCN1)N1CCCCC1
105

# Max lookup, item O=C(OC1CCCC1)c1ccccc1NCC1=NCCN1
58

# Max lookup, item CCCNC(=O)c1ccccc1NCC1=NCCN1
104

# Max lookup, item CCCN(CC)C(=O)c1ccccc1NCC1=NCCN1
115

# Max lookup, item CCCCOC(=O)c1ccccc1NCC1=NCCN1
114

# Max lookup, item CCN(C)C(=O)c1ccccc1NCC1=NCCN1
105

# Max lookup, item CCC(CC)OC(=O)c1ccccc1NCC1=NCCN1
94

# Max lookup, item CCN(CC)C(=O)c1ccccc1NCC1=NCCN1
105

# Max lookup, item c1ccc2c(CC3=NCCN3)cccc2c1
72

# Max lookup, item c1ccc(C2CC2)c(OCC2=NCCN2)c1
93

# Max lookup, item CC(C)(C)OC(=O)c1ccccc1NCC1=NCCN1
96

# Max lookup, item CCNC(=O)c1ccccc1NCC1=NCCN1
102

# Max lookup, item CNC(=O)c1ccccc1NCC1=NCCN1
104

# Max lookup, item CN(C)C(=O)c1ccccc1NCC1=NCCN1
104

# Max lookup, item Cc1cc(C(C)(C)C)c(O)c(C)c1CC1=NCCN1
74

# Max lookup, item O=C(c1ccccc1NCC1=NCCN1)N1CCCC1
105

# Max lookup, item CCCCNC(=O)c1ccccc1NCC1=NCCN1
103

# Max lookup, item CC(C)CNC(=O)c1ccccc1NCC1=NCCN1
58

# Max lookup, item CCC(C)OC(=O)c1ccccc1NCC1=NCCN1 (stereo unspecified)
96

# Max lookup, item CC(C)OC(=O)c1ccccc1NCC1=NCCN1
100

# Max lookup, item CCOC(=O)c1ccccc1NCC1=NCCN1
104

# Max lookup, item O=C(NC1CC1)c1ccccc1NCC1=NCCN1
99

# Max lookup, item CCC(C)NC(=O)c1ccccc1NCC1=NCCN1 (stereo unspecified)
82

# Max lookup, item CC(C)NC(=O)c1ccccc1NCC1=NCCN1
102

# Max lookup, item CC(C)COC(=O)c1ccccc1NCC1=NCCN1
68

====

For each of the compounds below, state its IC50.
- assayed.target: Alpha-1D adrenergic receptor (Homo sapiens)
- Sequence (P25100 whole entry): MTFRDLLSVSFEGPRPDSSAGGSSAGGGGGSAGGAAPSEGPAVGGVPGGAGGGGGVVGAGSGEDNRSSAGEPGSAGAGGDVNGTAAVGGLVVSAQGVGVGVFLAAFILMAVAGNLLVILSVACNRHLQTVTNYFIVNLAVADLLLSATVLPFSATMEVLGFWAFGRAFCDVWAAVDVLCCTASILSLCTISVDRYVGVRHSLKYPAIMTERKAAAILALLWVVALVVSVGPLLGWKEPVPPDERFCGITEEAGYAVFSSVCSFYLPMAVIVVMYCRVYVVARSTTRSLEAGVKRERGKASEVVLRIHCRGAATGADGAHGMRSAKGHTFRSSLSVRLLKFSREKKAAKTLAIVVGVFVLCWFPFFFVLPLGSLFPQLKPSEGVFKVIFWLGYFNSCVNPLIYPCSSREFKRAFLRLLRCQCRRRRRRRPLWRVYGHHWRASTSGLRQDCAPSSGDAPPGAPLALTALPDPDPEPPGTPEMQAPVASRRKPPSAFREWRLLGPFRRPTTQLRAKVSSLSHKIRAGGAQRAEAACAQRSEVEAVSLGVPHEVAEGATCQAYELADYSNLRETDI
- protocol.notes: Concentration required for 50% inhibition of binding against human Alpha-1D adrenergic receptor
Numeric answer only, unit nM assumed.

# IC50 lookup, item CCN(CC)C(=O)c1ccccc1NCC1=NCCN1
6610

# IC50 lookup, item CC(C)OC(=O)c1ccccc1NCC1=NCCN1
2000

# IC50 lookup, item CCCCNC(=O)c1ccccc1NCC1=NCCN1
1480

====

- assayed.target: Alpha-1A adrenergic receptor (Homo sapiens)
- Sequence (P35348 whole entry): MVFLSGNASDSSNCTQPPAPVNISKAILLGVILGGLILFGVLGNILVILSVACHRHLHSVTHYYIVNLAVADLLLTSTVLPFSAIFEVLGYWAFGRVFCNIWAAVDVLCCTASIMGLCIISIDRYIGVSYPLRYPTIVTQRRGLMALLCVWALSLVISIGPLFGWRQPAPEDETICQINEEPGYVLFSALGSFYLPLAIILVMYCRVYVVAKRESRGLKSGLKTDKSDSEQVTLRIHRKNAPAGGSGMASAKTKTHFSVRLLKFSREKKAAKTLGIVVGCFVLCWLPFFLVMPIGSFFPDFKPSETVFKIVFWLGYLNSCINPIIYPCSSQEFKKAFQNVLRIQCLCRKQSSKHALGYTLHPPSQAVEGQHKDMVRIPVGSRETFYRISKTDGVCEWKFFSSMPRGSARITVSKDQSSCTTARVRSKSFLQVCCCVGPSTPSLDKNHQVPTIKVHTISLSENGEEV
- protocol.notes: Agonist potency against cloned human alpha 1A adrenoceptor expressed in rat-1 fibroblasts.
recorded.metric: log10 EC50 (log10 of the value in nM)
Would you kindly interpret these values as log10 of EC50 expressed in nM?

# log10 EC50 lookup, item CCCCOC(=O)c1ccccc1NCC1=NCCN1
1.00

# log10 EC50 lookup, item CCCNC(=O)c1ccccc1NCC1=NCCN1
0.90

# log10 EC50 lookup, item c1ccc(C2CC2)c(OCC2=NCCN2)c1
1.10

# log10 EC50 lookup, item COC(=O)c1ccccc1NCC1=NCCN1
-0.10

# log10 EC50 lookup, item O=C(NC1CC1)c1ccccc1NCC1=NCCN1
1.20

# log10 EC50 lookup, item CCOC(=O)c1ccccc1NCC1=NCCN1
1.10

# log10 EC50 lookup, item CC(C)NC(=O)c1ccccc1NCC1=NCCN1
1.70

# log10 EC50 lookup, item CC(C)(C)OC(=O)c1ccccc1NCC1=NCCN1
0.90

# log10 EC50 lookup, item CC(C)COC(=O)c1ccccc1NCC1=NCCN1
2.70

# log10 EC50 lookup, item CNC(=O)c1ccccc1NCC1=NCCN1
0.40

# log10 EC50 lookup, item CCN(CC)C(=O)c1ccccc1NCC1=NCCN1
1.50

# log10 EC50 lookup, item CC(C)OC(=O)c1ccccc1NCC1=NCCN1
0.50

# log10 EC50 lookup, item c1ccc2c(CC3=NCCN3)cccc2c1
1.80

# log10 EC50 lookup, item O=C(c1ccccc1NCC1=NCCN1)N1CCCCC1
2.60

# log10 EC50 lookup, item CCN(C)C(=O)c1ccccc1NCC1=NCCN1
1.70

# log10 EC50 lookup, item CCC(C)NC(=O)c1ccccc1NCC1=NCCN1 (stereo not drawn)
2.70

# log10 EC50 lookup, item O=C(c1ccccc1NCC1=NCCN1)N1CCCC1
2.10

# log10 EC50 lookup, item CCC(C)OC(=O)c1ccccc1NCC1=NCCN1 (stereo not drawn)
0.10

# log10 EC50 lookup, item CCNC(=O)c1ccccc1NCC1=NCCN1
1.10

# log10 EC50 lookup, item O=C(OC1CCCC1)c1ccccc1NCC1=NCCN1
1.60

# log10 EC50 lookup, item CCC(CC)OC(=O)c1ccccc1NCC1=NCCN1
1.30

# log10 EC50 lookup, item CCCCNC(=O)c1ccccc1NCC1=NCCN1
1.30

# log10 EC50 lookup, item CC(C)CNC(=O)c1ccccc1NCC1=NCCN1
1.90

# log10 EC50 lookup, item CN(C)C(=O)c1ccccc1NCC1=NCCN1
1.30

# log10 EC50 lookup, item CCCN(CC)C(=O)c1ccccc1NCC1=NCCN1
2.00

====

- assayed.target: UniProt P25100
- protocol.notes: Potency against cloned human alpha 1D-adrenoceptor expressed in rat-1 fibroblasts.
pEC50: −log10 of the molar value.
Would you mind labelling by pEC50? At or over 7 is class 1, under is class 0.

State whether the measured pEC50 reaches 7, counting equality as reaching it, for O=C(OC1CCCCC1)c1ccccc1NCC1=NCCN1
class 0

State whether the measured pEC50 reaches 7, counting equality as reaching it, for CCCCOC(=O)c1ccccc1NCC1=NCCN1
class 1

State whether the measured pEC50 reaches 7, counting equality as reaching it, for CCCN(CC)C(=O)c1ccccc1NCC1=NCCN1
class 0

State whether the measured pEC50 reaches 7, counting equality as reaching it, for CCC(CC)OC(=O)c1ccccc1NCC1=NCCN1
class 0

State whether the measured pEC50 reaches 7, counting equality as reaching it, for CN(C)C(=O)c1ccccc1NCC1=NCCN1
class 0

State whether the measured pEC50 reaches 7, counting equality as reaching it, for O=C(NC1CCCC1)c1ccccc1NCC1=NCCN1
class 0

State whether the measured pEC50 reaches 7, counting equality as reaching it, for CCN(C)C(=O)c1ccccc1NCC1=NCCN1
class 0

State whether the measured pEC50 reaches 7, counting equality as reaching it, for CNC(=O)c1ccccc1NCC1=NCCN1
class 1

State whether the measured pEC50 reaches 7, counting equality as reaching it, for CC(C)OC(=O)c1ccccc1NCC1=NCCN1
class 0

State whether the measured pEC50 reaches 7, counting equality as reaching it, for CCN(CC)C(=O)c1ccccc1NCC1=NCCN1
class 0

State whether the measured pEC50 reaches 7, counting equality as reaching it, for CC(C)NC(=O)c1ccccc1NCC1=NCCN1
class 0

State whether the measured pEC50 reaches 7, counting equality as reaching it, for O=C(c1ccccc1NCC1=NCCN1)N1CCCCC1
class 0

State whether the measured pEC50 reaches 7, counting equality as reaching it, for CC(C)(C)OC(=O)c1ccccc1NCC1=NCCN1
class 0

State whether the measured pEC50 reaches 7, counting equality as reaching it, for O=C(OC1CCCC1)c1ccccc1NCC1=NCCN1
class 0

State whether the measured pEC50 reaches 7, counting equality as reaching it, for CCC(C)NC(=O)c1ccccc1NCC1=NCCN1 (configuration not stated)
class 0

State whether the measured pEC50 reaches 7, counting equality as reaching it, for COC(=O)c1ccccc1NCC1=NCCN1
class 1

State whether the measured pEC50 reaches 7, counting equality as reaching it, for CCC(C)OC(=O)c1ccccc1NCC1=NCCN1 (configuration not stated)
class 0

State whether the measured pEC50 reaches 7, counting equality as reaching it, for CC(C)CNC(=O)c1ccccc1NCC1=NCCN1
class 1

State whether the measured pEC50 reaches 7, counting equality as reaching it, for CC(C)COC(=O)c1ccccc1NCC1=NCCN1
class 0

State whether the measured pEC50 reaches 7, counting equality as reaching it, for c1ccc2c(CC3=NCCN3)cccc2c1
class 0

State whether the measured pEC50 reaches 7, counting equality as reaching it, for O=C(NC1CCC1)c1ccccc1NCC1=NCCN1
class 0

State whether the measured pEC50 reaches 7, counting equality as reaching it, for O=C(c1ccccc1NCC1=NCCN1)N1CCCC1
class 0

State whether the measured pEC50 reaches 7, counting equality as reaching it, for O=C(NC1CC1)c1ccccc1NCC1=NCCN1
class 0

State whether the measured pEC50 reaches 7, counting equality as reaching it, for CCCCNC(=O)c1ccccc1NCC1=NCCN1
class 0
